TARGET ENTITY: ProfilerPro Kinase Selectivity Assay Kit kinases (Homo sapiens, UniProt Q05513)
Type: biochemical
TEST CONDITIONS: PKC zeta; 1 μM compound concentration
For each entry below, report its POC (Percent of control) PKC zeta value.
Number first, unit second.

So, `Cc1cnc(Nc2cccc3[nH]ncc23)c(-c2nc(C)nc(N)n2)c1` ? Its POC (Percent of control) PKC zeta was 102 POC

So, `Cc1nc(N)cc(-c2cccnc2Nc2cccc3[nH]ncc23)n1` ? Its POC (Percent of control) PKC zeta was 99 POC

So, `COc1ccc(Nc2ncccc2-c2nc(C)nc3[nH]cnc23)cn1` ? Its POC (Percent of control) PKC zeta was 142 POC

So, `Cc1nc(N)nc(-c2cccnc2Nc2cccc3[nH]ccc23)n1` ? Its POC (Percent of control) PKC zeta was 98 POC

So, `Cc1nc(N)nc(-c2cc(CN3CCN(S(C)(=O)=O)CC3)cnc2Nc2cccc(O)c2)n1` ? Its POC (Percent of control) PKC zeta was 110 POC

So, `Cc1nc(-c2cccnc2Nc2cccc3[nH]ncc23)c2nc[nH]c2n1` ? Its POC (Percent of control) PKC zeta was 100 POC

So, `Cc1nc(N)nc(-c2cccnc2Nc2cccc(O)c2)n1` ? Its POC (Percent of control) PKC zeta was 102 POC

So, `c1cnc(Nc2cccc3[nH]ccc23)c(-c2ncnc3[nH]cnc23)c1` ? Its POC (Percent of control) PKC zeta was 98 POC

So, `CCc1cnc(Nc2ccc(OC)nc2)c(-c2nc(C)nc3[nH]cnc23)c1` ? Its POC (Percent of control) PKC zeta was 94 POC
